For each entry below, report its melting point value.
Numbers only, in °C.

{"compound": "CCNC(=O)C(c1ccccc1)c1ccccc1 [Example 12, N-Ethyl-2,2-diphenyl-acetamide]", "melting point / °C": 87}
{"compound": "C=CCNC(=O)C(c1ccccc1)c1ccccc1 [Example 13, N-Allyl-2,2-diphenyl-acetamide]", "melting point / °C": 186}
{"compound": "C#CCNC(=O)C(c1ccccc1)c1ccccc1 [Example 14, 2,2-Diphenyl-N-prop-2-ynyl-acetamide]", "melting point / °C": 131}
{"compound": "CCCC=CCNC(=O)C(c1ccccc1)c1ccccc1 [Example 16, N-Hex-2-enyl-2,2-diphenyl-acetamide]", "melting point / °C": 81}

# compound `CC(C)CCNC(=O)C(c1ccccc1)c1ccccc1` ; its melting point = 128
